For each entry below, report its pIC50 value.
assay: Inhibition of gp120 (His 105 residue) in HIV-1 BG505 infected in dog Cf2Th-CD4/CCR5 cells assessed as inhibition of viral entry incubated for 30 mins prior to infection and further incubated for 48 to 72 hrs in presence of firefly D-luciferin free acid and ATP by single-round infection luciferase assay; format: cell-based; conditions: Human immunodeficiency virus 1, BG505, Cf2Th-CD4/CCR5
Recall that pIC50 is obtained by taking minus log10 of the concentration measured in molar.

# compound CNCc1ccc2c(c1)[C@@H](CCC(=O)CO)[C@H](CNC(=N)N)[C@H]2NC(=O)C(=O)Nc1ccc(Cl)c(F)c1 ; its pIC50 = 3.78

# compound CNCc1ccc2c(c1)[C@H](NC(=O)C(=O)Nc1ccc(Cl)c(F)c1)[C@@H](CNC(=N)N)[C@@H]2CCCO ; its pIC50 = 3.79
